Experiment: Clearance
Assay type: in vitro ADME
Details: Table 9 comments
endpoint: log10(Clearance) (log10 of the value in µL/min)
All values: base-10 log of Clearance in µL/min.

Sample records with log10(Clearance):
* CCC(C)(C)C(=O)C(=O)N1CCCC[C@H]1C(=O)OC(CCc1ccccc1)CCc1ccccc1 | 1.62
* CCC(C)(C)C(=O)C(=O)N1CCC[C@H]1C(=O)CCCCc1cccnc1 | 0.18
* CCC(C)(C)C(=O)C(=O)N1CCC[C@H]1C(=O)OCCCc1cccnc1 | 1.80
* O=C(SCCCc1ccccc1)[C@@H]1CCCN1S(=O)(=O)Cc1ccccc1 | 1.49

Please indicate log10(Clearance) recorded for CCC(C)(C)C(=O)C(=O)N1CCCC[C@H]1C(=O)SCCC(c1ccccc1)c1ccccc1 0.65

Please indicate log10(Clearance) recorded for CCC(C)(C)C(=O)C(=O)N1CCC[C@H]1C(=O)O 0.72

Please indicate log10(Clearance) recorded for O=C(OCCCc1cccnc1)[C@@H]1CCCN1C(=S)NC1CCCCC1 0.90

Please indicate log10(Clearance) recorded for CN(C)C(=O)N1CCC[C@H]1C(=O)SCCCc1ccccc1 1.34

Please indicate log10(Clearance) recorded for CCC(C)(C)C(=O)C(=O)N1CCC[C@H]1C(=O)SCCC(c1ccccc1)c1ccccc1 1.10
